Reported IC50 is given for each of the following compounds.
test: Superoxide-scavenging activity assessed as inhibition of formation of WST1 formazan

- compound: "O=C(/C=C/c1ccc(O)cc1)c1ccc(O)cc1O"
  relation_sign: "="
  IC50, nM: 15000
- compound: "C/C(=C\\Cc1c(O)ccc(C(=O)/C=C/c2ccc(O)cc2)c1O)C/C=C/C(C)(C)O"
  relation_sign: "="
  IC50, nM: 510
- compound: "CC(C)(O)/C=C/CC(C)(O)[C@H]1Oc2ccc(C(=O)/C=C/c3ccc(O)cc3)c(O)c2[C@@H]1O (some centres undefined)"
  relation_sign: "="
  IC50, nM: 690
- compound: "O=C1O[C@H]([C@@H](O)CO)C(O)=C1O"
  relation_sign: ">"
  IC50, nM: 40000
- compound: "C=C(C)C(O)CCC(C)(O)[C@H]1Oc2ccc(C(=O)/C=C/c3ccc(O)cc3)c(O)c2[C@@H]1O (relative stereo)"
  relation_sign: "="
  IC50, nM: 1100
- compound: "Oc1ccc(/C=C/c2cc(O)cc(O)c2)cc1"
  relation_sign: "="
  IC50, nM: 5300
- compound: "CC(C)=CCC/C(C)=C/CC/C(C)=C/CO"
  relation_sign: ">"
  IC50, nM: 40000
- compound: "C=C(C)C(O)CC/C(C)=C/Cc1c(O)ccc(C(=O)/C=C/c2ccc(O)cc2)c1O (centres undefined)"
  relation_sign: "="
  IC50, nM: 920
- compound: "CC(C)=CCC/C(C)=C/Cc1c(O)ccc(C(=O)/C=C/c2ccc(O)cc2)c1O"
  relation_sign: ">"
  IC50, nM: 40000
